pIC50 values for the molecules below.
system: MDA-MB-231; experiment: Cytotoxicity against human MDA-MB-231 cells after 48 hrs by MTT assay; assay type: functional, cell-based; conditions: MDA-MB-231, 48 h
pIC50: −log10 of the molar value.

{"columns": ["MOLECULE_SMILES", "PREFIX_OPERATOR", "pIC50"],
 "data": [
  ["O=C(O)CN1C(=O)/C(=C/c2nc3ccc(F)cc3n2Cc2ccccc2F)SC1=S", "<", 4.30],
  ["Cc1ccc(Cn2c(/C=C3\\SC(=S)N(CC(=O)O)C3=O)nc3cc(F)ccc32)cc1", "=", 5.18],
  ["Cc1ccc(Cn2c(/C=C3\\SC(=S)N(CC(=O)O)C3=O)nc3ccccc32)cc1", "=", 5.98],
  ["Cc1ccc(Cn2c(/C=C3\\SC(=S)NC3=O)nc3ccccc32)cc1", "=", 5.19],
  ["Cc1ccc(Cn2c(/C=C3\\SC(=S)N(CC(=O)O)C3=O)nc3ccc(Cl)cc32)cc1", "=", 5.40],
  ["O=C(O)CN1C(=O)/C(=C/c2nc3ccccc3n2Cc2ccccc2)SC1=S", "=", 5.74]
]}

The reported numbers originate from ChEMBL document CHEMBL4257549.
